The variants listed here are annotated with their polymerase ribozyme fitness (log ratio).
B1: TPR 5TU (parent)
chain: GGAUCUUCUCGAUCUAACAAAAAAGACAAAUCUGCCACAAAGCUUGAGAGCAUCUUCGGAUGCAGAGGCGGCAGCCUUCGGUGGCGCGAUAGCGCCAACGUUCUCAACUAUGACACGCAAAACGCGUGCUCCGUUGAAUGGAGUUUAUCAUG

Variants of: B1
Assay: polymerase ribozyme fitness, log enrichment relative to wild type (log ratio); higher = more active; in vitro selection for triplet polymerase activity
Fewer inactive variants are shown than the library holds.
Lab note: jot the number down without any unit.

Look over these answered cases.
* C43G G94A G133U A137U | -4.11
* U31G G83U G126C | -0.857
* A17C G48C C93G | -3.01
* G84C A115C C116U | -3.98
* A52G A73G C99U G117A | -1.7
* G94U A150G | -2.5

INPUT: Please give measured polymerase ribozyme fitness (log ratio) of the following entry: C27U C76U
OUTPUT: -1.42

INPUT: Please give measured polymerase ribozyme fitness (log ratio) of the following entry: `C96U`
OUTPUT: -0.258

INPUT: Please give measured polymerase ribozyme fitness (log ratio) of the following entry: G59C C93U U102A A137G
OUTPUT: -3.95

INPUT: Please give measured polymerase ribozyme fitness (log ratio) of the following entry: G86C C114U
OUTPUT: -3.9

INPUT: Please give measured polymerase ribozyme fitness (log ratio) of the following entry: A21U C95A U146G
OUTPUT: -0.389
